Hey, just so you know, these numbers are from ChEMBL document CHEMBL1137806.

# Test system: MCF7
# assayNotes: Cytotoxicity against human MCF7 cells by MTT assay
# Assay type: functional, cell-based
assayEndpoint: IC50 (µM)

compound=COc1ccc2c(c1)C(=O)c1c(N)c(OC)c(OC)c3ccnc-2c13 assayendpoint=IC50 observedmeasurement=6.2
compound="COc1cc([C@@H]2c3cc4c(cc3[C@@H](O[C@@H]3O[C@@H]5CO[C@@H](C)O[C@H]5[C@H](O)[C@H]3O)[C@H]3COC(=O)[C@H]23)OCO4)cc(OC)c1O [ETOPOSIDE]" assayendpoint=IC50 observedmeasurement=12.3
compound=COc1ccc2c(c1)C(=O)c1c(NCCc3ccc(O)cc3)c(OC)cc3ccnc-2c13 assayendpoint=IC50 observedmeasurement=3
